Biological target: Carbonic anhydrase 9 (Homo sapiens, UniProt Q16790)
Test: Inhibition of recombinant human CA9 using 4-nitrophenylacetate as substrate by esterase assay
pIC50: −log10 of the molar value.
METRIC: pIC50

> print(dat)
                               smiles.entry  reported.measurement
1  CCCO[C@@H]1O[C@H](CNC(=O)c2ccc(S(N)(=O)=O)cc2)[C@@H](O)[C@H](O)[C@H]1N                  6.54
2  CCO[C@@H]1O[C@H](CNC(=O)c2ccc(S(N)(=O)=O)cc2)[C@@H](O)[C@H](O)[C@@H]1O                  6.70
3  CO[C@@H]1O[C@H](CNC(=O)c2ccc(S(N)(=O)=O)cc2)[C@@H](O)[C@H](O)[C@H]1O                  6.82
4  CO[C@@H]1O[C@H](CNC(=O)c2ccc(S(N)(=O)=O)cc2)[C@@H](O)[C@H](O)[C@H]1N                  6.72
5  CO[C@@H]1O[C@H](CNC(=O)c2ccc(S(N)(=O)=O)cc2)[C@@H](O)[C@H](O)[C@@H]1O                  6.77
6  CO[C@@H]1O[C@H](CNC(=O)c2ccc(S(N)(=O)=O)cc2)[C@H](O)[C@H](O)[C@H]1O                  6.70
7  CCCO[C@@H]1O[C@H](CNC(=O)c2ccc(S(N)(=O)=O)cc2)[C@@H](O)[C@H](O)[C@@H]1O                  6.59
8  CCCO[C@@H]1O[C@H](CNC(=O)c2ccc(S(N)(=O)=O)cc2)[C@H](O)[C@H](O)[C@H]1O                  6.66

====

Assay: Solubility of compound in water
Format: physicochemical
Settings: buffer
Assign label 1 whenever solubility does not fall below 2%; assign label 0 whenever it does.

> print(dat)
                                   compound      cat
1  CO[C@@H]1O[C@H](CNC(=O)c2ccc(S(N)(=O)=O)cc2)[C@@H](O)[C@H](O)[C@H]1O  label 1
2  CCCO[C@@H]1O[C@H](CNC(=O)c2ccc(S(N)(=O)=O)cc2)[C@H](O)[C@H](O)[C@H]1O  label 1
3  CCN[C@H]1C[C@H](C)S(=O)(=O)c2sc(S(N)(=O)=O)cc21 [DORZOLAMIDE]  label 0
4  CCO[C@@H]1O[C@H](CNC(=O)c2ccc(S(N)(=O)=O)cc2)[C@@H](O)[C@H](O)[C@H]1N  label 1
5  CCN[C@H]1CN(CCCOC)S(=O)(=O)c2sc(S(N)(=O)=O)cc21 [BRINZOLAMIDE]  label 0
6  CO[C@@H]1O[C@H](CNC(=O)c2ccc(S(N)(=O)=O)cc2)[C@@H](O)[C@H](O)[C@@H]1O  label 1
7  CC(=O)Nc1nnc(S(N)(=O)=O)s1 [ACETAZOLAMIDE]  label 0
